Answer each item with its documented pest or weed control at 70 g/ha.
test system: Key Grass and Sedge Weeds as well as Grass Crops; assay: Post-emergent Test II herbicidal activity (Table 16); assay type: in vivo; details: Zea mays, post-emergence, 336 h, maize, corn (Zea mays), 70 g ai/ha, 14 d, read-out: Visual Growth Reduction (%) 14 Days After Application, ZEAMX

{"columns": ["mol", "pest or weed control at 70 g/ha"],
 "data": [
  ["Nc1c(F)c(-c2ccc3cc[nH]c3c2)nc(C(=O)O)c1Cl", "75 to 84%"]
]}

Dear colleague, could you send me pest or weed control at 70 g/ha for each of the items below? Thanks.
1. Nc1c(F)c(-c2cc3[nH]ccc3cc2F)nc(C(=O)O)c1Cl
2. COC(=O)c1nc(-c2ccc3cc[nH]c3c2)nc(N)c1OC
3. COC(=O)c1nc(-c2c(F)cc3cc[nH]c3c2F)cc(N)c1Cl
4. COC(=O)c1nc(-c2ccc3cc[nH]c3c2)nc(N)c1Cl
5. Nc1c(F)c(-c2ccc3cc[nH]c3c2F)nc(C(=O)O)c1Cl
6. COC(=O)c1nc(-c2cc3occc3cc2F)c(F)c(N)c1Cl
7. COC(=O)c1nc(-c2ccc3cc[nH]c3c2F)c(F)c(N)c1OC

Solution:
1. 0 to 29%
2. 0 to 29%
3. 0 to 29%
4. 0 to 29%
5. 30 to 44%
6. 30 to 44%
7. 45 to 59%
